Data credit: patent US6930088B2

- assayExplanation: Pharmacokinetics following IV & SC administration
- conditionDetails: Wistar, rat, in vivo, sc, T½β (min) circulating half life; Conscious Wistar rats
assayEndpoint: half-life

1) C[C@@H](O)[C@@H]1NC(=O)[C@H](CCCCN)NC(=O)[C@@H](Cc2c[nH]c3ccccc23)NC(=O)[C@H](Cc2c[nH]c3ccccc23)NC(=O)[C@H](Cc2ccccc2)NC(=O)CCCNC(=O)CCCN(CC(N)=O)C(=O)[C@H](Cc2ccccc2)NC1=O :: 2.83 h
